tested on: SK-MEL-5 melanoma; assay: NCI tumour cell line growth inhibition, 48 h
For each entry below, report its TGI value.
Field format: number, assumed µM, no unit text.

Q: Look up TGI: Cc1cc(O)ccc1C1(c2ccc(O)cc2C)OC(=O)c2ccccc21
Ans: 32.1

Q: Look up TGI: Nc1c(C(=O)Nc2cccc(Cl)c2)sc2nc3c(cc12)C(O)CCC3 (stereo not given)
Ans: 18.3

Q: Look up TGI: c1cc[n+](Cc2c3ccccc3cc3c2ccc2ccccc23)cc1
Ans: 3.89

Q: Look up TGI: COc1cc2c(Nc3ccc(-c4ccc(N)cc4)cc3)ncnc2c(OC)c1OC
Ans: 5.3

###

For each entry below, report its log10 TGI value.
system: BT-549 breast; experiment: NCI tumour cell line growth inhibition, 48 h
Scale: log10; quantity: TGI; unit before log: µM

Q: Look up log10 TGI: Cc1cc(S(=O)(=O)Nc2nc3ccccc3c(=O)n2Cc2ccco2)c(S)cc1Cl
Ans: 1.72

Q: Look up log10 TGI: CCOC(=O)c1c(-c2ccccc2)n2c(=O)cc(C)c3c(O)c(O)cc1c32
Ans: 1.38

Q: Look up log10 TGI: CCN1CCN(Cc2ccc(Nc3ncc(F)c(-c4cc(F)c5nc(C)n(C(C)C)c5c4)n3)nc2)CC1
Ans: 1.14

Q: Look up log10 TGI: Nc1c(C(=O)Nc2cccc(Cl)c2)sc2nc3c(cc12)C(O)CCC3 (configuration not stated)
Ans: 1.59

Q: Look up log10 TGI: COC(=O)[C@]12CC[C@H]3CN(S(=O)(=O)c4ccc(C)cc4)[C@H]([C@H]31)[C@H](c1ccco1)N2S(=O)(=O)c1ccc(C)cc1
Ans: 1.96

Q: Look up log10 TGI: COc1ccc2[nH]c(C(=O)OCc3ccc4c(Br)cc(Br)c(O)c4n3)cc2c1
Ans: 0.33

Q: Look up log10 TGI: CC1(C=O)CC(CCc2ccccc2)NC1Cc1ccc(O)cc1 (configuration not stated)
Ans: 1.60

###

test system: CCRF-CEM leukemia; assay: NCI tumour cell line growth inhibition, 48 h
For each entry below, report its TGI value.

Q: Look up TGI: CCOC(=O)/C(=C\c1c[nH]c2ccccc12)P(=O)(OCC)OCC
Ans: 66.9 µM

Q: Look up TGI: CC[C@]12C=CCN3CC[C@@]4(c5ccc(OC)cc5N(C)[C@H]4[C@@](O)(C(=O)OC)[C@@H]1OC(=O)CCC(=O)O[C@H]1CC[C@H]4[C@@H]5CCC6=CC(=O)CC[C@@H]6[C@H]5CC[C@]14C)[C@@H]32
Ans: > 50 µM

Q: Look up TGI: CC(C)(C)OC(=O)N(O)CCCn1cnc2c(NC3CC3)ncnc21
Ans: > 100 µM

Q: Look up TGI: c1ccc2c(c1)nc1ccccn12
Ans: > 100 µM

Q: Look up TGI: c1ccc2c(c1)CCN1CCc3ccccc3C1C2 (centres undefined)
Ans: > 100 µM

Q: Look up TGI: COc1nc(=O)[nH]c2c1C(c1ccc([N+](=O)[O-])cc1)c1c(OC)nc(=O)[nH]c1O2
Ans: > 100 µM

Q: Look up TGI: CCOC(=O)/C=C(/C(=O)OCC)n1ccc(=O)n(Cc2cn(CCCCOC(C)=O)nn2)c1=O
Ans: 35.3 µM

Q: Look up TGI: COc1ccc(OC(=O)N2C/C(=C\c3ccccc3)C(=O)/C(=C/c3ccccc3)C2)cc1
Ans: 6.73 µM

Q: Look up TGI: CC(=O)Oc1ccc2c(=O)c(C(C)=O)coc2c1
Ans: > 100 µM

Q: Look up TGI: C=C1N(C)c2ccc(S(=O)(=O)c3ccc4c(c3)C(C)(C)C(=C)N4C)cc2C1(C)C
Ans: > 100 µM

Q: Look up TGI: C=CC(C)(C)NC(C(=O)N1CCC[C@H]1c1nc(-c2nc(C(=O)OCC=C(C)C)c(C)o2)c(C)o1)C(C)C (some centres undefined)
Ans: > 100 µM

Q: Look up TGI: Cc1nn(CNc2ccc(F)c(Cl)c2)c(=S)n1/N=C/c1ccc(-c2ccc(Cl)cc2Cl)o1
Ans: 18.5 µM

Q: Look up TGI: NC1=NC(c2ccc(Cl)cc2)=CC(c2cccc(Cl)c2)S1 (centres undefined)
Ans: > 100 µM

Q: Look up TGI: CCOC(=O)C1=C(C)NC2SC(=O)/C(=C\c3cccc(Cl)c3)N2C1c1ccccc1 (centres undefined)
Ans: > 100 µM

Q: Look up TGI: COc1ccc(OC)c(C2=C(c3cn(C)c4ccccc34)C(=O)NC2=O)c1
Ans: > 25 µM

Q: Look up TGI: CO[P@@]1(=O)O[C@@H](c2ccccc2)[C@H](O)[C@@]1(O)c1ccccc1
Ans: > 100 µM

Q: Look up TGI: Cc1cc(O)ccc1C1(c2ccc(O)cc2C)OC(=O)c2ccccc21
Ans: 67.7 µM

Q: Look up TGI: Cc1ccc(NC(=O)c2cccc(OP(=O)(Nc3ccc(C)cc3)Nc3ccc(C)cc3)c2)cc1
Ans: > 100 µM

Q: Look up TGI: [O-]c1c2c(nn1-c1ccc(F)cc1)c1ccccc1c[n+]2Cc1ccccc1
Ans: 33.7 µM

From: PubChem BioAssay (NCI)
